Tested on: SK-MEL-28
Assay: SRB colorimetric assay of cell growth and viability, SK-MEL-28
Type: cell-based, human
Conditions: MEL-28; 48 hours exposure; read-out: LC50 MEL-28
Where a SMILES comes first, the peptide text is derived from it. Bridges are numbered along the chain shown (N, C = ends). [ ]: non-standard residue; d: D form. The star is where a group is joined. d(aIle) = CC[C@H](C)[C@@H](N)C(=O)O; d(aThr) = C[C@@H](O)[C@@H](N)C(=O)O; Hexanoyl(5-Me) = CC(C)CCCC(=O)*; Phg = N[C@H](C(=O)O)c1ccccc1; Orn = NCCC[C@H](N)C(=O)O; Dhb = C/C=C(\N)C(=O)O
MEASURED PROPERTY: CC50 (nM)
Numeric only. Scale: nM

{"MOLECULE": "C/C=C1\\NC(=O)[C@H](Cc2ccccc2)NC(=O)[C@@H](C(C)C)NC(=O)[C@@H]([C@@H](C)CC)NC(=O)[C@H](NC(=O)[C@H](NC(=O)[C@H](CCCN)NC(=O)[C@H]2CCCN2C(=O)[C@H](NC(=O)[C@@H](NC(=O)CNC(=O)[C@H](NC(=O)CCCC(C)C)C(C)C)C(C)C)C(C)C)[C@@H](C)CC)[C@@H](C)OC(=O)[C@H](C(C)C)NC1=O [Compound 111, [Gly^12]-KF] ({Hexanoyl(5-Me)}-[dV]GV[dV][dP][Orn][d(aIle)][d(aThr)][d(aIle)][dV]F[Dhb]V; ester 8-C)", "ASSAYED TARGET": "SK-MEL-28", "REPORTED": 2900}

Then this molecule:
Q: Any idea what CC50 was measured for C/C=C1\NC(=O)[C@H](c2ccccc2)NC(=O)[C@@H](C(C)C)NC(=O)[C@@H]([C@@H](C)CC)NC(=O)[C@H](NC(=O)[C@H](NC(=O)[C@H](CCCN)NC(=O)[C@H]2CCCN2C(=O)[C@H](NC(=O)[C@@H](NC(=O)[C@@H](NC(=O)[C@H](NC(=O)CCCC(C)C)C(C)C)[C@@H](C)O)C(C)C)C(C)C)[C@@H](C)CC)[C@@H](C)OC(=O)[C@H](C(C)C)NC1=O [Compound 87, [Phg^3]-KF] ({Hexanoyl(5-Me)}-[dV]TV[dV][dP][Orn][d(aIle)][d(aThr)][d(aIle)][dV][Phg][Dhb]V; ester 8-C) ?
Result: 1900

----------
Test system: HT-29
Experiment: SRB colorimetric assay of cell growth and viability, HT-29
Type: cell-based, human
Conditions: 48 hours exposure; read-out: LC50 HT-29
Where a SMILES comes first, the peptide text is derived from it. Bridges are numbered along the chain shown (N, C = ends). [ ]: non-standard residue; d: D form. The star is where a group is joined. d(aIle) = CC[C@H](C)[C@@H](N)C(=O)O; d(aThr) = C[C@@H](O)[C@@H](N)C(=O)O; Hexanoyl(5-Me) = CC(C)CCCC(=O)*; Orn = NCCC[C@H](N)C(=O)O; Dhb = C/C=C(\N)C(=O)O
MEASURED PROPERTY: log10 CC50 (log10 of the value in µM)
A value of 2 here means CC50 of 100 in µM, since values are log10.

Below: 8 compounds and their reported log10 CC50.
{"COMPOUND": "C/C=C1\\NC(=O)[C@H](Cc2ccccc2)NC(=O)[C@@H](C(C)C)NC(=O)[C@@H]([C@@H](C)CC)NC(=O)[C@H](NC(=O)[C@H](NC(=O)[C@H](CCCN)NC(=O)[C@H]2CCCN2C(=O)[C@H](NC(=O)[C@H](CCC(N)=O)NC(=O)[C@@H](NC(=O)[C@H](NC(=O)CCCC(C)C)C(C)C)[C@@H](C)O)C(C)C)[C@@H](C)CC)[C@@H](C)OC(=O)[C@H](C(C)C)NC1=O [Compound 48, [Gln^11]-KF] ({Hexanoyl(5-Me)}-[dV]TQ[dV][dP][Orn][d(aIle)][d(aThr)][d(aIle)][dV]F[Dhb]V; ester 8-C)", "ASSAYED TARGET": "HT-29", "log10 CC50": 0.82}
{"COMPOUND": "C/C=C1\\NC(=O)[C@H](Cc2ccccc2)NC(=O)[C@@H](C(C)C)NC(=O)[C@@H]([C@@H](C)CC)NC(=O)[C@H](NC(=O)[C@H](NC(=O)[C@H](CCCN)NC(=O)[C@H]2CCCN2C(=O)[C@H](NC(=O)[C@@H](NC(=O)[C@@H]2CCCN2C(=O)CCCC(C)C)C(C)C)C(C)C)[C@@H](C)CC)[C@@H](C)OC(=O)[C@H](C(C)C)NC1=O [Compound 55, [Pro^12, noD-Val^13]-KF] ({Hexanoyl(5-Me)}-PV[dV][dP][Orn][d(aIle)][d(aThr)][d(aIle)][dV]F[Dhb]V; ester 7-C)", "ASSAYED TARGET": "HT-29", "log10 CC50": 0.86}
{"COMPOUND": "C/C=C1\\NC(=O)[C@H](Cc2ccccc2)NC(=O)[C@@H](C(C)C)NC(=O)[C@@H]([C@@H](C)CC)NC(=O)[C@H](NC(=O)[C@H](NC(=O)[C@H](CCCN)NC(=O)[C@H]2CCCN2C(=O)[C@H](NC(=O)[C@@H](NC(=O)[C@@H](NC(=O)[C@H](NC(=O)Cc2cc(F)cc(F)c2)C(C)C)[C@@H](C)O)C(C)C)C(C)C)[C@@H](C)CC)[C@@H](C)OC(=O)[C@H](C(C)C)NC1=O [Compound 22, [3,5-dFPhAc^14]-KF]", "ASSAYED TARGET": "HT-29", "log10 CC50": 0.63}
{"COMPOUND": "C/C=C1\\NC(=O)[C@H](Cc2ccccc2)NC(=O)[C@@H](C(C)C)NC(=O)[C@@H]([C@@H](C)CC)NC(=O)[C@H](NC(=O)[C@H](NC(=O)[C@H](CCCN)NC(=O)[C@H]2CCCN2C(=O)[C@H](NC(=O)[C@@H](NC(=O)[C@@H](NC(=O)[C@@H](CC2CCCCC2)NC(=O)CCCC(C)C)[C@@H](C)O)C(C)C)C(C)C)[C@@H](C)CC)[C@@H](C)OC(=O)[C@H](C(C)C)NC1=O [Compound 8, [D-Cha^13]-KF]", "ASSAYED TARGET": "HT-29", "log10 CC50": 0.60}
{"COMPOUND": "C/C=C1\\NC(=O)[C@H](Cc2ccccc2)NC(=O)[C@@H](C(C)C)NC(=O)[C@@H]([C@@H](C)CC)NC(=O)[C@H](NC(=O)[C@H](NC(=O)[C@H](CCC(=O)O)NC(=O)[C@H]2CCCN2C(=O)[C@H](NC(=O)[C@@H](NC(=O)[C@@H](NC(=O)[C@H](NC(=O)CCCC(C)C)C(C)C)[C@@H](C)O)C(C)C)C(C)C)[C@@H](C)CC)[C@@H](C)OC(=O)[C@H](C(C)C)NC1=O [Compound 4, [Glu^8]-KF] ({Hexanoyl(5-Me)}-[dV]TV[dV][dP]E[d(aIle)][d(aThr)][d(aIle)][dV]F[Dhb]V; ester 8-C)", "ASSAYED TARGET": "HT-29", "log10 CC50": 0.66}
{"COMPOUND": "C/C=C1\\NC(=O)[C@H](Cc2ccccc2)NC(=O)[C@@H](C(C)C)NC(=O)[C@@H]([C@@H](C)CC)NC(=O)[C@H](NC(=O)[C@H](NC(=O)[C@H](CCCN)NC(=O)[C@H]2CCCN2C(=O)[C@H](NC(=O)[C@H](C)NC(=O)[C@@H](NC(=O)[C@H](NC(=O)CCCC(C)C)C(C)C)[C@@H](C)O)C(C)C)[C@@H](C)CC)[C@@H](C)OC(=O)[C@H](C(C)C)NC1=O [Compound 44, [Ala^11]-KF] ({Hexanoyl(5-Me)}-[dV]TA[dV][dP][Orn][d(aIle)][d(aThr)][d(aIle)][dV]F[Dhb]V; ester 8-C)", "ASSAYED TARGET": "HT-29", "log10 CC50": 0.71}
{"COMPOUND": "C/C=C1\\NC(=O)[C@H](Cc2ccccc2)NC(=O)[C@@H](C(C)C)NC(=O)[C@@H]([C@@H](C)CC)NC(=O)[C@H](NC(=O)[C@H](NC(=O)[C@H](CCCN)NC(=O)[C@H]2CCCN2C(=O)[C@H](NC(=O)[C@@H](NC(=O)[C@@H](NC(=O)[C@@H](NC(=O)CCCC(C)C)C(C)C)[C@@H](C)O)C(C)C)C(C)C)[C@@H](C)CC)[C@@H](C)OC(=O)[C@H](C(C)C)NC1=O [Compound 38, [Val^13]-KF]", "ASSAYED TARGET": "HT-29", "log10 CC50": 0.59}
{"COMPOUND": "C/C=C1\\NC(=O)[C@H](Cc2ccccc2)NC(=O)[C@@H](C(C)C)NC(=O)[C@@H]([C@@H](C)CC)NC(=O)[C@H](NC(=O)[C@H](NC(=O)[C@H](CCCN)NC(=O)[C@H]2CCCN2C(=O)[C@H](NC(=O)[C@@H](NC(=O)[C@@H](NC(=O)[C@H](NC(=O)CCCCCCCCCC)C(C)C)[C@@H](C)O)C(C)C)C(C)C)[C@@H](C)CC)[C@@H](C)OC(=O)[C@H](C(C)C)NC1=O [Compound 15, [Und^14]-KF]", "ASSAYED TARGET": "HT-29", "log10 CC50": -0.24}

Then this compound:
Q: Any idea what log10 CC50 was measured for C/C=C1\NC(=O)[C@H](Cc2ccccc2)NC(=O)[C@@H](C(C)C)NC(=O)[C@@H]([C@@H](C)CC)NC(=O)[C@H](NC(=O)[C@H](NC(=O)[C@H](CCCN)NC(=O)[C@H]2CCCN2C(=O)[C@H](NC(=O)[C@H](CCC(=O)O)NC(=O)[C@@H](NC(=O)[C@H](NC(=O)CCCC(C)C)C(C)C)[C@@H](C)O)C(C)C)[C@@H](C)CC)[C@@H](C)OC(=O)[C@H](C(C)C)NC1=O [Compound 51, [Glu^11]-KF] ({Hexanoyl(5-Me)}-[dV]TE[dV][dP][Orn][d(aIle)][d(aThr)][d(aIle)][dV]F[Dhb]V; ester 8-C) ?
Result: 0.82
